Each item that follows carries a reported pIC50.
assay-system: interaction between IL-17A and soluble IL-17 Receptor A (IL-17RA) (Homo sapiens)
Construct: IL-17RA: Expi HEK293 cells
experimental-protocol: IL-17 FRET assay
experimental-context: IL-17A binding to IL-17RA
Scale: negative log10 of molar concentration, which is what pIC50 denotes.

| compound | pIC50 |
| --- | --- |
| Cc1nonc1C(=O)N[C@H](c1nc2c(F)c(C(CC(F)(F)F)C(=O)N3CC(F)(F)C3)ccc2[nH]1)C1CCC(F)(F)CC1 (stereo partly drawn) [Example 7] | 7.80 |
| Cc1nonc1C(=O)N[C@H](c1nc2c(F)c([C@@H](CC(F)F)C(=O)N3CC(F)(F)C3)ccc2[nH]1)C1CCC(F)(F)CC1 (single isomer, unassigned) [Example 5] | 5.80 |
| C[C@@H](C(=O)N1CC(F)(F)C1)c1ccc2[nH]c([C@@H](NC(=O)c3ccnn3C)C3CCC(F)(F)CC3)nc2c1F (single isomer, unassigned) [Example 22] | 6.50 |
| Cc1nonc1C(=O)N[C@H](c1nc2nc(C3(C(=O)NCC4CC4(F)F)CCOCC3)ccc2[nH]1)C1CCC(F)(F)CC1 (stereo partly drawn) [Example 24] | 7.60 |
| Cc1nonc1C(=O)N[C@H](c1nc2c(F)c(C3(C(=O)N4CC(F)(F)C4)CCC(F)(F)CC3)ccc2[nH]1)C1CCC(F)(F)CC1 [Example 23] | 7.70 |

Kindly consider the entry below.
# get_value(readout='pIC50', item= Cc1nonc1C(=O)N[C@H](c1nc2c(F)c(C3(C(=O)N4CC(F)(F)C(F)(F)C4)CCOCC3)ccc2[nH]1)C1CCC(F)(F)CC1 [Example 19] )
7.90

* * *

assay-system: interaction between IL-17A and soluble IL-17 Receptor A (IL-17RA) (Homo sapiens, UniProt Q16552)
Construct: IL-17RA: Expi HEK293 cells
Sequence (Q16552 24-155): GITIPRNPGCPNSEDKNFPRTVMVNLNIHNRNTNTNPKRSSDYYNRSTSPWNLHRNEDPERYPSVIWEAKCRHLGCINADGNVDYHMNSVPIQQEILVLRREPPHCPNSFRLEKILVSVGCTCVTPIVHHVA
experimental-protocol: IL-17 FRET assay
experimental-context: IL-17A binding to IL-17RA
Assign labels as follows, please: met for IC50 below 80 nM; not met for IC50 equal to or exceeding 80 nM.

Example cases with answers are listed next.
| molecule | label-class |
| --- | --- |
| COC(=O)N1CCC(C(=O)N2CC(F)(F)C2)(c2ccc3[nH]c([C@@H](NC(=O)c4nonc4C)C4CCC(F)(F)CC4)nc3c2F)CC1 | met |
| CC(C(=O)N1CC(F)(F)C1)c1ccc2[nH]c([C@@H](NC(=O)c3ccnn3C)C3CCC(F)(F)CC3)nc2c1F (mixture of isomers) | not met |
| Cc1nonc1C(=O)N[C@H](c1nc2c(F)c(C(CC(F)F)C(=O)N3CC(F)(F)C3)ccc2[nH]1)C1CCC(F)(F)CC1 (mixture of isomers) | met |
| COC(=O)N1CC[C@@](C(=O)N2CC(F)(F)C(F)(F)C2)(c2ccc3[nH]c([C@@H](NC(=O)c4nonc4C)C4CCC(F)(F)CC4)nc3c2F)C1 (single isomer, unassigned) | met |
| Cc1nonc1C(=O)N[C@H](c1nc2c(F)c([C@H](CC(F)F)C(=O)N3CC(F)(F)C3)ccc2[nH]1)C1CCC(F)(F)CC1 (single isomer, unassigned) | met |
| COC(=O)N1CC[C@](C(=O)N2CC(F)(F)C(F)(F)C2)(c2ccc3[nH]c([C@@H](NC(=O)c4nonc4C)C4CCC(F)(F)CC4)nc3c2F)C1 (single isomer, unassigned) | met |
| [2H]C([2H])([2H])n1nccc1C(=O)N[C@H](c1nc2c(F)c(C3(C(=O)N4CC(F)(F)C4)CC(F)(F)C3)ccc2[nH]1)C1CCC(F)(F)CC1 | not met |
| Cn1nccc1C(=O)N[C@H](c1nc2c(F)c(C(CC(F)(F)F)C(=O)N3CC(F)(F)C3)ccc2[nH]1)C1CCC(F)(F)CC1 (some centres unmarked) | not met |

Is IC50 of C[C@H](C(=O)N1CC(F)(F)C1)c1ccc2[nH]c([C@@H](NC(=O)c3ccnn3C)C3CCC(F)(F)CC3)nc2c1F (single isomer, unassigned) strictly below 80 nM?
met

Same for Cc1nonc1C(=O)N[C@H](c1nc2c(F)c(C3(C(=O)N4CC(F)(F)C4)CCNCC3)ccc2[nH]1)C1CCC(F)(F)CC1
not met
